assay: Renal clearance in patient with moderate renal impairment at 400 mg, po administered as single dose; format: ADME, organism-based, Kidney; conditions: human, in vivo, read-out: CL_renal (converted)
PROPERTY LABEL: CL renal (mL/min)
Quick reminder: number only, in mL/min, skip the unit.

Can you share its CL renal? I mean this compound: Cc1cn([C@@H]2C[C@@H](O)[C@H](CO)O2)c(=O)[nH]c1=O [TELBIVUDINE]
43.3

* * *

assay: Renal clearance in patient with severe renal impairment at 200 mg, po administered as single dose; assay type: ADME, organism-based, Kidney; settings: human, in vivo, read-out: CL_renal (converted)
PROPERTY LABEL: CL renal (mL/min)
Give the quantity in mL/min, number only.

Quick one: CL renal of Cc1cn([C@@H]2C[C@@H](O)[C@H](CO)O2)c(=O)[nH]c1=O [TELBIVUDINE] ?
11.7
